# assaySystem: T1, human NPR1 extracellular domain expressed with a C-terminal myc-myc-hexahistidine (hNPR1-MMH) (human, UniProt P16066 33-473)
# T1 construct: also called hNPR.mmh; monomeric human NPR1
# T1 sequence (P16066 other isoform, or with tags, fused parts or gaps): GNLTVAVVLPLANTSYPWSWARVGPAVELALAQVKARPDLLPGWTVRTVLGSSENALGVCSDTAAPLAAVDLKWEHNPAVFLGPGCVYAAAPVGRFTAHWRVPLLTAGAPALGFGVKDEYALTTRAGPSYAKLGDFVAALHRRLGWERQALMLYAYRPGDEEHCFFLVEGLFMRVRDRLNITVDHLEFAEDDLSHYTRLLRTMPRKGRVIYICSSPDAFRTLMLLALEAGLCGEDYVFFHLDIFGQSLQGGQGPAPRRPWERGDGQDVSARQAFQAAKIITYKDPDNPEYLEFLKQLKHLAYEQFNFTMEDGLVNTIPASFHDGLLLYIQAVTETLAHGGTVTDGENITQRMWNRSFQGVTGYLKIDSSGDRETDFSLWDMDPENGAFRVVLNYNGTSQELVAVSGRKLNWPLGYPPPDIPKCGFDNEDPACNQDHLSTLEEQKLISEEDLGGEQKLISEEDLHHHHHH
# assayText: SPR, mAb captured, 37 C
// values below are reported t½
Give the quantity in min, number only.

[
  {
    "binder": "mAb25479 (antibody, V domains shown) VH: QVQLVQSGAEVKKPGASVKVSCKASGYTFTGYYIHWVRQAPGQGLEWMGWINPNSIGTNYAQKFQGRVTLTRDTSISTAYMELSSLRSDDTAVYYCARGGSSSYYYYYYGMDVWGQGTTVTVSS VL: DIQMTQSPSSLSASVGDRVTITCRASQSIDNYLNWYQQKPGKAPKLLIYVASSLQSGVPSRFSGSGSGTDFTLTISSLQPEDFATYYCQQSYSTPLTFGGGTKVEIK",
    "valueMeasured": 0.7
  }
]

From here, focus on the item given below.
Task: So what's the measured t½ for this one? mAb22033 (antibody, V domains shown) VH: QVQLVQSGAEVKKPGASVTVSCKASGYTFTDYYMHWVRQAPGQGLEWMGWIKPNSGGTNSAQRFQGRITMTWDTSISTAYMELSRLRSDDTAVYYCSRGGPVMNYYYYYGMDVWGQGTTVTVSS VL: NIQMTQSPSSLSASVGDRVTITCRASQSIDSYLNWYQQKPGKAPKLLIYVASSLQSGVPSRFSGSGSGKDFTLTISSLQPEDFATYYCQQSYSIPTFGQGTRLEIK
Result: 14.1
